These entries and their values trace back to ChEMBL document CHEMBL5500426.

test system: PC-3; assay: Antiproliferative activity against human PC-3 cells assessed as inhibition of cell growth incubated for 72 hrs by MTT assay; type: functional, cell-based; conditions: PC-3, 72 h
Observed Property: IC50 (µM)

- Oc1c(-c2cc(C(F)(F)F)n[nH]2)ccc(OCc2ccc(Cl)cc2)c1C#CCCN1CCCCC1: 3.65
- Oc1c(-c2cc(C(F)(F)F)n[nH]2)ccc(OCc2ccc(Cl)cc2)c1C#CCCCN1CCOCC1: 9.89
- Oc1c(-c2cc(C(F)(F)F)n[nH]2)ccc(OCc2ccc(Cl)cc2)c1C#CCCN1CCOCC1: 8.51

A. Oc1c(-c2cc(C(F)(F)F)n[nH]2)ccc(C#CCN2CCOCC2)c1-c1ccc(Cl)c(C(F)(F)F)c1
B. Oc1c(-c2cc(C(F)(F)F)n[nH]2)ccc(OCc2ccc(Cl)cc2)c1C#CCCN1CC2(COC2)C1
C. Cn1nc(C(F)(F)F)cc1-c1ccc(C#CCCCO)c(-c2ccc(Cl)c(C(F)(F)F)c2)c1O
Sort low-to-high on IC50, please. # format: label list in the order the request specifies A, B, C
(A: 2.02 µM, B: 4.88 µM, C: 65.5 µM)

a. CN1CCN(CC#Cc2c(OCc3ccc(Cl)cc3)ccc(-c3cc(C(F)(F)F)n[nH]3)c2O)CC1
b. Oc1c(-c2cc(C(F)(F)F)n[nH]2)ccc(OCc2ccc(Cl)cc2)c1C#CCCCN1CCCCC1
Param pair: a , b . Output: the one whose IC50 is numerically greater. The response must carry the label of the picked entry. a

I. CN1CCN(CC#Cc2ccc(-c3cc(C(F)(F)F)nn3C)c(O)c2-c2ccc(Cl)c(C(F)(F)F)c2)CC1
II. OCCC#Cc1c(OCc2ccc(Cl)cc2)ccc(-c2cc(C(F)(F)F)n[nH]2)c1O
Could you please tell me which of these two has the higher IC50: I or II ? Select an item and report its label. II
